Listed here are variants together with their documented enrichment ratio.
B1: PhoQ; a variant is named by its letters at X, in order, P23837 (parent)
chain: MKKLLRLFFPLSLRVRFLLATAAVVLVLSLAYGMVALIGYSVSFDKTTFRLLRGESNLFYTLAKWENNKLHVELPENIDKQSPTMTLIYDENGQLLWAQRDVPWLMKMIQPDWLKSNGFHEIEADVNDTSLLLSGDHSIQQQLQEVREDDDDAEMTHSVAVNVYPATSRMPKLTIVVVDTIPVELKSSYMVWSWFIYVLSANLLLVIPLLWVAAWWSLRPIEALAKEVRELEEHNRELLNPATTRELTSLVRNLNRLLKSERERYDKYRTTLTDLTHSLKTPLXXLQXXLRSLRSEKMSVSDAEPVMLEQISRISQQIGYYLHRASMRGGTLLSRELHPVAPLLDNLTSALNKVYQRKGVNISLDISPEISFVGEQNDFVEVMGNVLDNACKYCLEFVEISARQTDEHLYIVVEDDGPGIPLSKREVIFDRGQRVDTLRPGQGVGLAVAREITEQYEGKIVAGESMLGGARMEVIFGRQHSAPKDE

Variants of: B1
procedure-text: enrichment ratio after two sorts for PhoP signalling (ratio (wild type AVST 3.29)); higher = more functional
condition-description: with PhoP (E. coli)
The full ranking holds about 140,000 sequences; the median of “enrichment ratio after two sorts for PhoP signalling” is about 0, and the highest 2% start at about 11. Many of the other results were omitted from the sample, so the highest values are more common in it than they were.
API doc: respond with a numeric literal and nothing else, no unit.

[
  {
    "mutation-label": "NILV",
    "value-reported": 0.722
  },
  {
    "mutation-label": "GICG",
    "value-reported": 15.9
  },
  {
    "mutation-label": "SGQL",
    "value-reported": 12
  },
  {
    "mutation-label": "GIVG",
    "value-reported": 10.4
  }
]

Consider the additional variant presented here.
Inquiry: Dear colleague, please send me the reported enrichment ratio for GICA when you can.
Reply text: 11.2
